B1: Myocardin, residues 363 to 406; numbered along this chain, Q8IZQ8 (parent)
chain: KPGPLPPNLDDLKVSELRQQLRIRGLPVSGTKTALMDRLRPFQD

variants of: B1; assay: abundance fitness (aPCA) (normalised: wild type 0, dead -1); higher = more abundant; growth selection in yeast, the domain comes from the species named; conditions: Homo sapiens
The following variants are listed with their measured abundance fitness values.
Reply briefly: the number, and no unit.

IN: Reported abundance fitness, variant `L39W` : ____
OUT: -0.77

IN: Reported abundance fitness, variant `R40I` : ____
OUT: -0.205

IN: Reported abundance fitness, variant `M36E` : ____
OUT: -0.463

IN: Reported abundance fitness, variant `G3W` : ____
OUT: -0.607

IN: Reported abundance fitness, variant `D10S` : ____
OUT: -0.257

IN: Reported abundance fitness, variant `Q43C` : ____
OUT: -0.005

IN: Reported abundance fitness, variant `K1A` : ____
OUT: -0.671

IN: Reported abundance fitness, variant `T31P` : ____
OUT: -0.222

IN: Reported abundance fitness, variant `G25L` : ____
OUT: -1.12

IN: Reported abundance fitness, variant `G30A` : ____
OUT: -0.967

IN: Reported abundance fitness, variant `K32W` : ____
OUT: -0.759

IN: Reported abundance fitness, variant `A34V` : ____
OUT: 0.026

IN: Reported abundance fitness, variant `N8R` : ____
OUT: -0.116

IN: Reported abundance fitness, variant `S29Y` : ____
OUT: -0.095

Source: the Human Domainome abundance scans (Beltran et al. 2025)
